biological target: T1, Fib1, N-terminal 30 kDa fragment of fibronectin (Homo sapiens (Human), UniProt P02751 32-290); assay: fluorescence polarization/anisotropy, Cy5-labelled peptide (48 nM) titrated with Fib1 in PBS pH 7.4
T1 construct: also called Fib1 construct; 30 kDa N-terminal fragment of fibronectin containing the N-terminal FnI1-5 modules
T1 sequence (P02751 32-290 limits assumed): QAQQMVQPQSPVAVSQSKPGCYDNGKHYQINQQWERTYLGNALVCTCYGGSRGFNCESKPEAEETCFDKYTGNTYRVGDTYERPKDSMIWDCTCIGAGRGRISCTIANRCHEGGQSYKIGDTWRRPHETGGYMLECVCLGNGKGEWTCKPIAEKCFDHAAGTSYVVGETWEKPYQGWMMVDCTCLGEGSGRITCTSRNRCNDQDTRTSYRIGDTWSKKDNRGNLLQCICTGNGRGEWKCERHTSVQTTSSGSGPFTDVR
Groups on a side chain read outwards from the residue. No end group written: not given here.
recorded-metric: Kd (nM)

C([maleimide-Cy5])GGGQVTTESNLVEFDEESTKGIVTGAVSDHTTVEDTK (not fully specified, A payload-GGG- format by amide bond is also mentioned; also called Cy5-labelled FnBPA5; FnBPA5 peptide) [Cy5-FnBPA5]: 102
